System: Polyporus versicolor
Test: MIC on fungi in agar
Details: Trametes versicolor, 336 h
The following compounds are shown together with reported MIC values.
Answer as a quantity: numeral, then unit.

Given O=c1c(-c2ccc(F)cc2)c[nH]n1-c1ncccn1 , state its recorded MIC. 35 µg/mL

Need MIC of COc1ccc(-c2c[nH]n(-c3ccccn3)c2=O)cc1 , thanks. 20 µg/mL

So what's the measured MIC for this one? COc1ccccc1-c1c[nH]n(-c2ncccn2)c1=O 10 µg/mL

Bench note: what MIC did Cc1ccc(-c2c[nH]n(-c3ccccn3)c2=O)cc1 show? 3.5 µg/mL

Which MIC value belongs to O=c1c(-c2ccc(C(F)(F)F)cc2)c[nH]n1-c1ncccn1 ? 5 µg/mL

* * *

System: Polyporus versicolor
Listed below: MIC values for each entry.
Numbers only; they are read as µg/mL.

O=c1c(-c2ccccc2)c[nH]n1-c1ncccn1 = 2
O=c1c(-c2ccccc2F)c[nH]n1-c1ccccn1 = 7.5
O=c1c(-c2ccccc2Cl)c[nH]n1-c1ncccn1 = 35
COc1ccc(-c2c[nH]n(-c3ncccn3)c2=O)cc1 = 20

# value lookup — system Polyporus versicolor, readout MIC, item O=c1c(-c2ccc(Cl)cc2)c[nH]n1-c1ncccn1 5

Find the measured MIC: item O=c1c(-c2ccccc2)c[nH]n1-c1ccccn1 , target or system Polyporus versicolor. 35

Item: O=c1c(-c2ccccc2Br)c[nH]n1-c1ncccn1 Test system: Polyporus versicolor Read-out: MIC Value: ? 2

Short answer please: MIC, Polyporus versicolor, entry Cc1cccc(-c2c[nH]n(-c3ncccn3)c2=O)c1 5

For Polyporus versicolor, provide MIC of Cc1ccccc1-c1c[nH]n(-c2ccccn2)c1=O please. 7.5

* * *

So I've got MIC readings for Penicillium glaucum, take a look.
Your answer is read as µg/mL, so omit the unit and give the number.

Solved cases below.
Cc1ccccc1-c1c[nH]n(-c2ccccn2)c1=O = 7.5
O=c1c(-c2ccc(C(F)(F)F)cc2)c[nH]n1-c1ncccn1 = 10
O=c1c(-c2ccccc2F)c[nH]n1-c1ccccn1 = 5
O=c1c(-c2ccccc2)c[nH]n1-c1ncccn1 = 50

Please report the recorded MIC for Cc1ccc(-c2c[nH]n(-c3ccccn3)c2=O)cc1 . 5

Recorded MIC for O=c1c(-c2ccccc2Br)c[nH]n1-c1ncccn1 , please? 50

Fill in: MIC of O=c1c(-c2ccccc2)c[nH]n1-c1ccccn1 is ___ 10

Requested field: MIC. Item: O=c1c(-c2ccc(Cl)cc2)c[nH]n1-c1ncccn1 10

// lookup MIC for COc1ccc(-c2c[nH]n(-c3ccccn3)c2=O)cc1 75

Entry under review: COc1ccc(-c2c[nH]n(-c3ncccn3)c2=O)cc1 . Reported MIC? 10

* * *

The following compounds each carry a recorded log10 MIC for Trichoderma viride.
In our notation, the value equals log10 of MIC in mg/L.

Known results for compounds:
Cc1ccc(-c2c[nH]n(-c3ccccn3)c2=O)cc1 [Example 23] = 3.00
O=c1c(-c2ccc(Cl)cc2)c[nH]n1-c1ncccn1 [Example 85] = 2.00
O=c1c(-c2ccccc2)c[nH]n1-c1ncccn1 [Example 81, 1-pyrimid-2-yl-4-phenyl-pyrazolin-5-one] = 1.88
COc1ccc(-c2c[nH]n(-c3ccccn3)c2=O)cc1 [Example 15] = 3.00
O=c1c(-c2ccc(C(F)(F)F)cc2)c[nH]n1-c1ncccn1 [Example 100] = 2.70

API: value(readout= log10 MIC, system= Trichoderma viride, query= O=c1c(-c2ccccc2F)c[nH]n1-c1ccccn1 [Example 5] ) 1.54

Please tell me: log10 MIC of Cc1ccccc1-c1c[nH]n(-c2ccccn2)c1=O [Example 21] , system Trichoderma viride? 1.70

* * *

System: Penicillium glaucum
ATTRIBUTE MEASURED: MIC (µg/mL)
Use µg/mL as the unit, but write only the number.

// known answers, use as guide
O=c1c(-c2ccc(F)cc2)c[nH]n1-c1ncccn1 [Example 83] = 20
COc1ccccc1-c1c[nH]n(-c2ncccn2)c1=O [Example 90] = 35
Cc1cccc(-c2c[nH]n(-c3ncccn3)c2=O)c1 [Example 97] = 10

Short answer please: MIC, Penicillium glaucum, entry O=c1c(-c2ccccc2Cl)c[nH]n1-c1ncccn1 [Example 84] 20

* * *

Form: system (Lentinus tigrinus), quantity (MIC), values below.
Your answer is read as µg/mL, so omit the unit and give the number.

Example results:
COc1ccc(-c2c[nH]n(-c3ncccn3)c2=O)cc1 [Example 91] = 100
Cc1cccc(-c2c[nH]n(-c3ncccn3)c2=O)c1 [Example 97] = 10
O=c1c(-c2ccc(C(F)(F)F)cc2)c[nH]n1-c1ncccn1 [Example 100] = 15
O=c1c(-c2ccc(Cl)cc2)c[nH]n1-c1ncccn1 [Example 85] = 7.5

Now for the compound whose MIC we want.
Form field: reported MIC of O=c1c(-c2ccccc2Br)c[nH]n1-c1ncccn1 [Example 86] 2

* * *

System: Lentinus tigrinus
hey, just use Fulfilled if measured MIC is less than 50 µg/mL, otherwise Not fulfilled

O=c1c(-c2ccccc2)c[nH]n1-c1ncccn1 = Fulfilled
O=c1c(-c2ccccc2)c[nH]n1-c1ccccn1 = Not fulfilled
Cc1ccc(-c2c[nH]n(-c3ccccn3)c2=O)cc1 = Not fulfilled
COc1ccccc1-c1c[nH]n(-c2ncccn2)c1=O = Not fulfilled

Does this molecule meet the criterion MIC < 50 µg/mL? O=c1c(-c2ccccc2F)c[nH]n1-c1ccccn1 Fulfilled

* * *

Tested on: Trichoderma viride
This section presents compounds with their documented MIC values.
Dear colleague, please return just the value in µg/mL, with no unit written.

I'm curious: which MIC was measured for O=c1c(-c2ccccc2)c[nH]n1-c1ccccn1 [Example 4, 1-pyrid-2-yl-4-phenyl-pyrazolin-5-one] tested on Trichoderma viride? 200

Request - read-out MIC | tested on Trichoderma viride | compound O=c1c(-c2ccc(F)cc2)c[nH]n1-c1ncccn1 [Example 83] 75

Field: MIC (Trichoderma viride). Entry: Cc1cccc(-c2c[nH]n(-c3ncccn3)c2=O)c1 [Example 97] 75

Please state recorded MIC (tested on Trichoderma viride) of O=c1c(-c2ccccc2Cl)c[nH]n1-c1ncccn1 [Example 84] 35

Could you share what MIC was measured for O=c1c(-c2ccccc2Br)c[nH]n1-c1ncccn1 [Example 86] , tested on Trichoderma viride? 35

Which MIC is reported with Trichoderma viride for this entry: COc1ccc(-c2c[nH]n(-c3ncccn3)c2=O)cc1 [Example 91] ? 200

Record lookup: for Trichoderma viride, what MIC belongs to COc1ccccc1-c1c[nH]n(-c2ncccn2)c1=O [Example 90] ? 150
